- Measured target: T1, Human CD137 ECD (human)
- T1 construct: also called 4-1BB
- T1 sequence (chain, as listed by the source limits assumed): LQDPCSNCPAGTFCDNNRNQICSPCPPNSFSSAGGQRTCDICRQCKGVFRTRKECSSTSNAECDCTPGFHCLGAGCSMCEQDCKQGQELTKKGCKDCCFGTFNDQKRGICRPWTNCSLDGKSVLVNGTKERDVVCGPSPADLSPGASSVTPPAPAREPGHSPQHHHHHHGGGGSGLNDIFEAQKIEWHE
- Protocol details: single mutant vs template dBBDu183H
Measured fold change of affinity of individual entries
Please give a number only; it is taken to be in fold.

Worked cases, answers included:
H183/L072 VH A54L (antibody, name in Kabat numbering, V domains shown) VH: QVQLVESGGGLVQPGRSLRLSCAASGFTFSNAWMHWVRQAPGKGLEWVAQIKDKGNLYAAYYAPSVKGRFTISRDDSKNSIYLQMNSLKTEDTAVYYCHYVHYASASTVLPAFGVDAWGQGTTVTVSS VL: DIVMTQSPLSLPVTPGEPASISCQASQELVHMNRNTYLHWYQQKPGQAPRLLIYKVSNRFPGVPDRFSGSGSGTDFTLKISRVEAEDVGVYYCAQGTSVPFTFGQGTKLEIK
1
H183/L072 VH A100L (antibody, name in Kabat numbering, V domains shown) VH: QVQLVESGGGLVQPGRSLRLSCAASGFTFSNAWMHWVRQAPGKGLEWVAQIKDKGNAYAAYYAPSVKGRFTISRDDSKNSIYLQMNSLKTEDTAVYYCHYVHYASLSTVLPAFGVDAWGQGTTVTVSS VL: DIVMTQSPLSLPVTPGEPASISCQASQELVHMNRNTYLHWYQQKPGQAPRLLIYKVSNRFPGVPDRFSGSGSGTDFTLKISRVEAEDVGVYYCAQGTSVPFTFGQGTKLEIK
0

Then this binder:
Task item: Complete the entry with fold change of affinity for H183/L072 VH A32G (antibody, name in Kabat numbering, V domains shown) VH: QVQLVESGGGLVQPGRSLRLSCAASGFTFSNGWMHWVRQAPGKGLEWVAQIKDKGNAYAAYYAPSVKGRFTISRDDSKNSIYLQMNSLKTEDTAVYYCHYVHYASASTVLPAFGVDAWGQGTTVTVSS VL: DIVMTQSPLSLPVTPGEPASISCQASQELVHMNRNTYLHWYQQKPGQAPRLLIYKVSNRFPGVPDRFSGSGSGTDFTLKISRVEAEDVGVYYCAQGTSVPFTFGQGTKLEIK
Reply: 0.1
